Cited source: patent US7973012B2

Molecular target: human SGLT1 (Homo sapiens, UniProt P13866)
Sequence (P13866 whole entry): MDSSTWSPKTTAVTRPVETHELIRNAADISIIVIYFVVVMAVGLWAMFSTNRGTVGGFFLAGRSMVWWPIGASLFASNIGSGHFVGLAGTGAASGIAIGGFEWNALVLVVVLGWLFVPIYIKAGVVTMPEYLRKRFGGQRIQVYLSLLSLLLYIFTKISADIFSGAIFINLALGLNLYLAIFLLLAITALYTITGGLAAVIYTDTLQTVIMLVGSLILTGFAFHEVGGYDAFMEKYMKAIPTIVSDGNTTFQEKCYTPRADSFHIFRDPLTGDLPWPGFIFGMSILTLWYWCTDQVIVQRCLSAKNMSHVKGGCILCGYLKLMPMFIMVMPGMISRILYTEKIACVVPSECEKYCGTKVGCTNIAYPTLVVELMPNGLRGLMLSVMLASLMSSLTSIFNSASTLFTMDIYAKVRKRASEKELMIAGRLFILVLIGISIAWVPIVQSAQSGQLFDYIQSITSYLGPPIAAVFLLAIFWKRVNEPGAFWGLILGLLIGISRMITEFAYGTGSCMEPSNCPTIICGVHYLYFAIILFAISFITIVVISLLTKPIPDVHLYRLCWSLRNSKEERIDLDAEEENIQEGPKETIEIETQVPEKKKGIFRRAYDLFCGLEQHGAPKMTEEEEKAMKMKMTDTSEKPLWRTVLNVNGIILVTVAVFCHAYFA
Assay: Inhibition test of sodium-dependent sugar uptake in CHO-k1 cells stably expressing human SGLT1
Details: CHO-k1 cells expressing human SGLT1; [14C]methyl α-D-glucopyranoside uptake, 37° C., 30 minutes
Description: An SGLT1 sequence (NM_000343) was reverse-transcripted from human small intestinal mRNA, then amplified, and then introduced into pCMV-tag5A from Stratagene Corporation. […] The cells were incubated in a pretreatment buffer A (200 μL for SGLT1, and 2 mL for SGLT2) for 20 minutes. […] After a liquid scintilater was added thereto and mixed sufficiently, radioactivity was measured with microBETA (SGLT1) or a liquid scintillation counter from Beckman Coulter, Inc (SGLT2). […]
pIC50: −log10 of the molar value.
Please use Met whenever pIC50 is not below 7, and Not met whenever it is.

[
  {
    "entry smiles": "Cc1cc(O)c([C@@H]2O[C@H](CO)[C@@H](O)[C@H](O)[C@H]2O)cc1Cc1ccc(CCCC(=O)NC(CO)(CO)CO)cc1",
    "group label": "Met"
  },
  {
    "entry smiles": "Cc1cc(O)c([C@@H]2O[C@H](CO)[C@@H](O)[C@H](O)[C@H]2O)cc1Cc1ccc(CCCC(=O)NC(C)(CO)CO)cc1",
    "group label": "Met"
  },
  {
    "entry smiles": "Cc1cc(O)c([C@@H]2O[C@H](CO)[C@@H](O)[C@H](O)[C@H]2O)cc1Cc1ccc(CCNC(=O)NC(C)(C)CO)cc1",
    "group label": "Met"
  },
  {
    "entry smiles": "Cc1cc(O)c([C@@H]2O[C@H](CO)[C@@H](O)[C@H](O)[C@H]2O)cc1Cc1ccc(CCCNC(=O)NC(CO)(CO)CO)cc1",
    "group label": "Not met"
  }
]
